Source of measurements: ChEMBL document CHEMBL1201862

- Test system: RXF 393
- PROCEDURE DETAILS: NCI tumour cell line growth inhibition, 48 h
The source made the active and inactive calls. Rule as the data show it: active = GI50 up to about 1.1 µM and inactive = higher. Where a SMILES comes first, the peptide text is derived from it. [ ]: non-standard residue; d: D form. The star is where a group is joined. ξ: configuration not given here. ξD = NC(CC(=O)O)C(=O)O; Ac3c = NC1(C(=O)O)CC1; Boc = CC(C)(C)OC(=O)*; OBn = c1ccc(CO*)cc1
Would you mind answering with one of these outcomes? active, inactive

Below, 3 compounds whose answers are already recorded.
{"COMPOUND": "C(=N\\NC1=NCCCN1)/c1ccc(-c2cn3cc(/C=N/NC4=NCCCN4)ccc3n2)cc1", "LABEL": "inactive"}
{"COMPOUND": "COC(=O)C1(NC(=O)C(CC(=O)OCc2ccccc2)NC(=O)OC(C)(C)C)CC1 (configuration not stated) (Boc-[ξD](OBn)-[Ac3c]-OMe)", "LABEL": "inactive"}
{"COMPOUND": "OC1(c2ccccc2)c2ccccc2N=C2NCCN21 (configuration not stated)", "LABEL": "inactive"}

Which outcome was entered for the compound COc1ccc(C2CCc3nc4nc(N)nc(N)c4cc3C2)cc1 (configuration not stated) in this test? inactive

Same thing, different compound: Nc1ncnc2c1nc(Cl)n2C1OC(CO)C(O)C1O (configuration not stated) active

Quick one: `CCCCCCCCCC(=O)Oc1cccc2onc(C)c12` inactive

Moving on to `N/C(=N\N=C=C1C(=O)Nc2ccc(F)cc21)NO` inactive

Then this compound: CN(C)CC1CN(C(=O)Nc2ccccc2)C(=N)O1 (configuration not stated) inactive

Request: `O=S(=O)(/C=C/C(=C/c1ccccc1)S(=O)(=O)c1ccccc1)c1ccccc1` inactive

Cool, now CC1SCCc2nc3ccccc3n21 (configuration not stated) inactive

Next compound up: COc1ccc(C2OC(=O)c3c2ccc2ccccc32)c(C)c1 (configuration not stated) inactive

Subsequent entry: `COC(=O)N1[C@H]2Cc3c(OC)c(C)c(OC)c(OC)c3[C@@H]1/C(=C\c1cc(OC)c(OC)c(C)c1OC)N(Cc1ccccc1)C2=O` inactive

// repeat for `CC(=O)O[C@H]1C[C@]2(O)[C@@H]3CC[C@@H]4C[C@@H](O)CC[C@]4(C)[C@H]3CC[C@]2(C)[C@H]1C1=CC(=O)OC1` and report active

And for `O=C1N[C@H]2C(=O)c3c(Cl)sc(Cl)c3[C@H]2O1` ? inactive

Then what about the compound CSCCC(C(=O)O)N(C)C (configuration not stated) ? inactive

`CCSC1(SCC)CCN(/C=N/C(C)(C)C)C1` ? inactive

###

- Tested on: HOP-62
- PROCEDURE DETAILS: NCI tumour cell line growth inhibition, 48 h
Calls of active or inactive are those of the source. Cut-off read from the data, not from the text of the source: active = GI50 up to about 1.1 µM and inactive = higher.
Use one of these outcomes when replying: true (1) (active), false (0) (inactive)

Take a look at these entries with their results.
{"COMPOUND": "CCOC(=O)/C(C(=O)Nc1ccc(Cl)cc1)=C(/N)N1CCCC1", "LABEL": "false (0)"}
{"COMPOUND": "NC[C@H]1Nc2ccccc2[C@@H](O)C1O (stereo partly specified)", "LABEL": "false (0)"}
{"COMPOUND": "c1ccc(C2SCc3nc4cc5ccccc5cc4n32)cc1 (stereo unspecified)", "LABEL": "false (0)"}
{"COMPOUND": "COc1ccc([C@@]23Oc4cc(OC)cc(OC)c4[C@]2(O)[C@H](O)[C@H](C(=O)N(C)C)[C@H]3c2ccccc2)cc1 [ROCAGLAMIDE]", "LABEL": "true (1)"}
{"COMPOUND": "COc1ccc2[nH]c3c(C)c4ccnc(NCCCN(C)CCCNC(=O)NCCCN(C)CCCNc5nccc6c(C)c7[nH]c8ccc(OC)cc8c7c(C)c56)c4c(C)c3c2c1", "LABEL": "true (1)"}
{"COMPOUND": "COC1C=CC(O)C(CO)O1 (stereo unspecified)", "LABEL": "false (0)"}
{"COMPOUND": "[O-][n+]1ccccc1Sc1nc(Sc2cccc[n+]2[O-])nc(Sc2cccc[n+]2[O-])n1", "LABEL": "false (0)"}
{"COMPOUND": "CN(C)CC1CN(C(=O)Nc2ccccc2)C(=N)O1 (stereo unspecified)", "LABEL": "false (0)"}

Each compound tested received a call. Report the one for `COc1ccc(C=O)c(N(C)C(=O)C(C)(C)C)c1` . false (0)

Another compound: `O=C(Nc1ccccc1C(=O)NC(=O)c1ccccc1NC(=O)c1ccccc1)c1ccccc1` false (0)

Lookup `O=c1c2ccccc2nc2n1CCc1c-2[nH]c2ccc(Br)cc12` false (0)

###

- Test system: SF-539
- PROCEDURE DETAILS: NCI tumour cell line growth inhibition, 48 h
Activity calls are given as the source filed them. Rule as the data show it: active = GI50 up to about 1.1 µM and inactive = higher.
OUTCOME MEASURE: GI50

{"COMPOUND": "COc1ccc(/C=C(\\NC(=O)c2ccccc2)c2nc3ccccc3[nH]2)cc1", "OBSERVED": "39.1 µM (inactive)"}
{"COMPOUND": "CCCCc1c2c(nc3c1CCc1cc4cc5c(nc4nc1-3)-c1nc3c(c(CCCC)c1CC5)CCCC3)CCCC2", "OBSERVED": "16.4 µM (inactive)"}
{"COMPOUND": "Cc1cccc(C2ON=C(c3ccccc3)N2C23CC4CC(CC(C4)C2)C3)c1 (stereo unspecified)", "OBSERVED": "> 10 µM (inactive)"}
{"COMPOUND": "O=C(CCc1ccc(O)c(O)c1)NCCc1cc(O)c(O)c(O)c1", "OBSERVED": "> 100 µM (inactive)"}
{"COMPOUND": "CC1=NN=C(C)C1/N=N/c1ccc2[nH]c(C)nc2c1", "OBSERVED": "26.9 µM (inactive)"}

Value lookup for GI50; key = CC1=NN(C(=O)c2ccncc2)C(=O)C1/N=N/c1ccc2ccccc2c1 (stereo unspecified) > 96.8 µM (inactive)

###

- System: HT-29
- PROCEDURE DETAILS: NCI tumour cell line growth inhibition, 48 h
The source made the active and inactive calls. Rule as the data show it: active = GI50 up to about 1.1 µM and inactive = higher.
Can you answer with just one of these options? label 1 for active, label 0 for inactive

{"COMPOUND": "COCN1C(N)=C(C(=O)OC(C)(C)C)C2=CC(=O)C=CC21C (stereo unspecified)", "LABEL": "label 0"}

Which result was noted for this compound in the test: `NC(=O)C12CC3CC(CC(Br)(C3)C1)C2` label 0

Another compound to check: `COc1ccc2c(c1)[n+]([O-])c(/C(C)=N/NC(=O)c1ccccc1O)c(C)[n+]2[O-]` label 0

Record: C=CCC1([C@H](C)[C@@H](OC(C)=O)c2cc(OC)c(OC)c(OC)c2)C[C@@H](OC)CCC1=O (stereo partly specified) label 0

// query: CC(O[Si](C)(C)C)C1C=CC(C)n2c(=O)n(-c3ccccc3)c(=O)n21 (stereo unspecified) label 0

Moving on to `C=C(CN(C)C)C(=O)c1ccc(C(=O)C(=C)CN(C)C)cc1` label 0

# repeat for Nc1nn(CC(O)CO)c(=O)s1 (stereo unspecified) label 0

Same lookup for `CCN(CC)CCNC(=O)c1cc2cc(NC(=O)c3cc4cc(N)ccc4[nH]3)ccc2[nH]1` , please. label 0

Another compound: `c1ccc(/N=c2/sc3ccccc3s/c2=N/c2ccccc2)cc1` label 0

Same question, O=C1C(C(O)(C(F)(F)F)C(F)(F)F)CCC1C(O)(C(F)(F)F)C(F)(F)F (stereo unspecified) this time label 1

Item: O=C(NC(Cc1c[nH]c2ccccc12)C(=O)O)/C(=C/c1ccccc1)NC(=O)c1ccccc1 (stereo unspecified) label 0

###

- Test system: COLO 205
- PROCEDURE DETAILS: NCI tumour cell line growth inhibition, 48 h
Calls of active or inactive are those of the source. No stated cut-off is given here; in the data, active = GI50 up to about 1.1 µM and inactive = higher.
Use one of these outcomes when replying: active, inactive

Previously resolved entries follow.
{"MOLECULE": "COc1ccc(/C=C2\\C[C@H]3[C@@H]4CC=C5C[C@@H](O)CC[C@]5(C)[C@H]4CC[C@]3(C)\\C2=N\\O)cc1", "MEASURED TARGET": "COLO 205", "LABEL": "inactive"}
{"MOLECULE": "COc1cccc2c1C(=O)c1c(O)c3c(c(O)c1C2=O)C[C@@](O)(/C(C)=N\\O)C[C@@H]3OC1CC(N)C(O)C(C)O1 (stereo partly specified)", "MEASURED TARGET": "COLO 205", "LABEL": "active"}
{"MOLECULE": "O=C1CCCc2ccc([N+](=O)[O-])c(O)c21", "MEASURED TARGET": "COLO 205", "LABEL": "inactive"}
{"MOLECULE": "CCCCCCCCCCCCc1ccc(S(=O)(=O)O)cc1", "MEASURED TARGET": "COLO 205", "LABEL": "inactive"}
{"MOLECULE": "O=[N+]([O-])c1ccc(-[n+]2ccc3ccccc3c2)c([N+](=O)[O-])c1", "MEASURED TARGET": "COLO 205", "LABEL": "inactive"}
{"MOLECULE": "CC(C)[C@]12O[C@H]1[C@@H]1O[C@@]13[C@@]1(C)CCC4=C(COC4=O)[C@@H]1C[C@@H]1O[C@@]13C2=O [TRIPTONIDE]", "MEASURED TARGET": "COLO 205", "LABEL": "active"}

GET /call?item= `COc1cc(OC)cc(-n2c(N)c(-c3nc4ccccc4s3)c3ccc([N+](=O)[O-])cc3c2=O)c1` returns the recorded outcome of this test. inactive

Same lookup for `CC(C)[Si](OC1=C(C(=O)Nc2ccccc2Cl)CCCCC1)(C(C)C)C(C)C` , please. inactive

Now this one: `O=C1N[C@H]2C(=O)c3c(Cl)sc(Cl)c3[C@H]2O1` inactive

Proceed to `Sc1nnc(/C=C/c2ccc(Cl)c(Cl)c2)[nH]1` active

Next: `COc1ccc(C2=C(Cl)C(=O)O/C2=C\c2ccc(OC)c(Br)c2)cc1Cl` inactive
